target: T1, HLA-A*0301 (human); experiment: competition with 125I-labelled probe peptide on purified HLA-A*0301, gel filtration; ratio to standard peptide 941.12
T1 construct: Purified HLA molecule, 5 to 500 nM in the assay; also called HLA-A3
I'd appreciate it if you marked entries criterion met when relative binding ratio (IC50 of standard peptide / IC50 of test peptide) is lower than 0.002 relative binding ratio and criterion not met when it is not.

*Q* Strictly below 0.002 relative binding ratio: is that where relative binding ratio (IC50 of standard peptide / IC50 of test peptide) of VLVKSPNHVK [HER2/neu peptide, position 851, 10 amino acids] sits?
*A* criterion not met

*Q* Strictly below 0.002 relative binding ratio: is that where relative binding ratio (IC50 of standard peptide / IC50 of test peptide) of VVQGNLELTY [HER2/neu peptide, position 55, 10 amino acids] sits?
*A* criterion not met

*Q* Strictly below 0.002 relative binding ratio: is that where relative binding ratio (IC50 of standard peptide / IC50 of test peptide) of YLEDVRLVHR [HER2/neu peptide, position 835, 10 amino acids] sits?
*A* criterion met

*Q* Strictly below 0.002 relative binding ratio: is that where relative binding ratio (IC50 of standard peptide / IC50 of test peptide) of VTAEDGTQR [HER2/neu peptide, position 322, 9 amino acids] sits?
*A* criterion met

*Q* Strictly below 0.002 relative binding ratio: is that where relative binding ratio (IC50 of standard peptide / IC50 of test peptide) of WMALESILRR [HER2/neu peptide, position 888, 10 amino acids] sits?
*A* criterion not met

*Q* Strictly below 0.002 relative binding ratio: is that where relative binding ratio (IC50 of standard peptide / IC50 of test peptide) of VLIAHNQVR [HER2/neu peptide, position 84, 9 amino acids] sits?
*A* criterion not met

*Q* Strictly below 0.002 relative binding ratio: is that where relative binding ratio (IC50 of standard peptide / IC50 of test peptide) of TVPWDQLFR [HER2/neu peptide, position 479, 9 amino acids] sits?
*A* criterion met

*Q* Strictly below 0.002 relative binding ratio: is that where relative binding ratio (IC50 of standard peptide / IC50 of test peptide) of VARCPSGVK [HER2/neu peptide, position 597, 9 amino acids] sits?
*A* criterion not met
